Origin of values: PubChem BioAssay AID1963845

Consider the following compounds and their measured viability, T/C readings.
- Test system: 429239-143-T-J1-PDC complex spheroid viability;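 also: luminescence signal used as surrogate measure of viable cells; spheroids exposed to compounds for seven days before readout; 100% = DMSO vehicle control viability as luminescence relative to vehicle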
- protocol: Anticancer human tumor 429239-143-T-J1-PDC patient-derived small cell lung carcinoma cell line growth inhibition [POLQ]
- experimental-context: second compound 3.16 µM; first compound 0.1 µM; hits give low values
- Description: Multicellular complex tumor spheroid response to Polymerase (POL) inhibitors (novobiocin, ART-558, RP6685) in combination with a variety of drugs and investigational agents in selected tumor cell lines The POL inhibitors (novobiocin, ART-558, and RP6685) were evaluated both individually and in combination with standard of care and investigational anticancer small molecules within a complex spheroid model of solid tumors. . […]

# compound, system, measure-unit, viability, T/C
measured = [
    ("CNCc1ccc(-c2[nH]c3cc(F)cc4c3c2CCNC4=O)cc1 + Nc1ccc(C#CCN(C(=O)Cc2ncc(C(F)(F)F)cc2C(F)(F)F)c2ccc(F)cc2)nn1", "429239-143-T-J1-PDC complex spheroid viability", "%", 92.2),
    ("CCCS(=O)(=O)Nc1ccc(F)c(C(=O)c2c[nH]c3ncc(-c4ccc(Cl)cc4)cc23)c1F + COC1C(OC(N)=O)C(O)C(Oc2ccc3c(O)c(NC(=O)c4ccc(O)c(CC=C(C)C)c4)c(=O)oc3c2C)OC1(C)C", "429239-143-T-J1-PDC complex spheroid viability", "%", 96.3),
    ("CCc1cc2c(N3CCc4c(cc(Cn5ccnc5)cc4-c4cn(C)nc4C(F)(F)F)C3=O)cc(C)nc2c(OC)n1 + Cc1cccc(N(C)C(=O)C2C(O)CCN2c2nc(C)cc(C(F)(F)F)c2C#N)c1", "429239-143-T-J1-PDC complex spheroid viability", "%", 101),
    ("CCCS(=O)(=O)Nc1ccc(F)c(C(=O)c2c[nH]c3ncc(-c4ccc(Cl)cc4)cc23)c1F + Nc1ccc(C#CCN(C(=O)Cc2ncc(C(F)(F)F)cc2C(F)(F)F)c2ccc(F)cc2)nn1", "429239-143-T-J1-PDC complex spheroid viability", "%", 104),
    ("COc1cc(C2c3cc4c(cc3C(OC3OC5COC(C)OC5C(O)C3O)C3COC(=O)C23)OCO4)cc(OC)c1O (stereo not given) + COC1C(OC(N)=O)C(O)C(Oc2ccc3c(O)c(NC(=O)c4ccc(O)c(CC=C(C)C)c4)c(=O)oc3c2C)OC1(C)C", "429239-143-T-J1-PDC complex spheroid viability", "%", 88.9),
]
